measurement-target: FGFR1 (Homo sapiens)
Sequence (P11362 22-822): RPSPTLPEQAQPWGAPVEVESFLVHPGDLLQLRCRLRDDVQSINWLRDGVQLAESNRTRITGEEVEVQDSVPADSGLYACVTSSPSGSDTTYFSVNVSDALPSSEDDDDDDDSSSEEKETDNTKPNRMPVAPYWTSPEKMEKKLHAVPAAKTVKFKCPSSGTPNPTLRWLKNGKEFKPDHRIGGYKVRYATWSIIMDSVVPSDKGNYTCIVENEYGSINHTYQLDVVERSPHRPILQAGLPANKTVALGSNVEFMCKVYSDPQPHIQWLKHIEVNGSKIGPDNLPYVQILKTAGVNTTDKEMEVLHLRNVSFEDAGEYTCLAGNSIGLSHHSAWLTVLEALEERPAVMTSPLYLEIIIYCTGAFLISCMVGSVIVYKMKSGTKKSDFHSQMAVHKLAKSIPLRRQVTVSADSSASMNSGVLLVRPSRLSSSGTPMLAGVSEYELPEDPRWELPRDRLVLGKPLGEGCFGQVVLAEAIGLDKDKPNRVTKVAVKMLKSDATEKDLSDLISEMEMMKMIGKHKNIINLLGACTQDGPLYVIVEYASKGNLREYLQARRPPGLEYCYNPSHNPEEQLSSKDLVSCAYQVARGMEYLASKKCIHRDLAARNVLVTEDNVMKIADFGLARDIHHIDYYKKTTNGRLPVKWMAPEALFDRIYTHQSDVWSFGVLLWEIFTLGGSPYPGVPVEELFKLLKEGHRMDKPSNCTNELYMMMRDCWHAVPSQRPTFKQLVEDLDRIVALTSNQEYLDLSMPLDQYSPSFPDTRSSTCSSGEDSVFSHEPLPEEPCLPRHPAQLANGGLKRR
procedure-details: Isolated enzyme FRET-based Z-Lyte kinase inhibition assay
condition: means from 3 independent experiments; read-out: Isolate Enzyme Inhibition IC50, FGFR1
Label condition met when IC50 < 0.8 nM; otherwise condition not met.

smiles-entry | assigned-category
COc1cc(OC)c(Cl)c(N2Cc3cnc(NC(C)C)nc3N([C@H]3CCN(C(=O)/C=C/CN(C)C)C3)C2=O)c1Cl | condition not met
COc1cc(OC)c(Cl)c(-c2cc3cnc(NC(C)C)nc3n(Cc3cccc(NC(=O)/C=C/CN(C)C)c3)c2=O)c1Cl | condition not met
CNc1ncc2c(n1)N(C1CCN(C(=O)/C=C/CN3CCOCC3)CC1)C(=O)N(c1c(Cl)c(OC)cc(OC)c1Cl)C2 | condition met
COc1cc(OC)c(Cl)c(-c2cc3cnc(Nc4ccc(F)cc4)nc3n(C3CCN(C(=O)/C=C/CN(C)C)CC3)c2=O)c1Cl | condition met
CNc1ncc2cc(-c3c(Cl)c(OC)cc(OC)c3Cl)c(=O)n(C3CCN(C(=O)/C=C/CN(C)C)CC3)c2n1 | condition met

* * *

procedure-details: Murine plasma pharmacokinetics assay
Type: in vivo, NIH-III nude mice
condition: female, NIH-III nude, mouse, plasma, ip, 80 mg/kg, 80 mg/kg intraperitoneal, plasma; read-out: Cmax-obs
Description: Compound 204 was formulated in water for injection at 2 or 4 mg/ml to be administered by intraperitoneal injection at 0.02 ml/g body weight to achieve a 40 or 80 mg/kg dose. […] The resulting supernatant was diluted in 2 volumes of 0.01% formic acid in water and 10 uL injected onto the LC-MS/MS system using an established quantitative analysis method. […]

compound | Cmax [µM]
COc1cc(OC)c(Cl)c(N2Cc3cnc(Nc4ccccc4)nc3N(C3CCN(C(=O)/C=C/C[N+](C)(C)Cc4c([N+](=O)[O-])ncn4C)CC3)C2=O)c1Cl.[Br-] [Compound 204] | 77.3

* * *

procedure-details: Murine plasma pharmacokinetics assay
Assay type: in vivo, NIH-III nude mice
condition: female, NIH-III nude, mouse, ip; 40 mg/kg intraperitoneal, plasma, model fit
reported-metric: AUC(0-inf) (µM·h)

compound | reported-metric | units-of-measure | readout-number
COc1cc(OC)c(Cl)c(N2Cc3cnc(Nc4ccccc4)nc3N(C3CCN(C(=O)/C=C/C[N+](C)(C)Cc4c([N+](=O)[O-])ncn4C)CC3)C2=O)c1Cl.[Br-] [Compound 204] | AUC(0-inf) | µM·h | 262

* * *

measurement-target: FGFR1 (Homo sapiens)
procedure-details: Isolated enzyme FRET-based Z-Lyte kinase inhibition assay
condition: means from 3 independent experiments; read-out: Isolate Enzyme Inhibition IC50, FGFR1
pIC50: −log10 of the molar value.
List of pIC50 values.

compound | measurement-target | pIC50
CNc1ncc2c(n1)N(C1CCN(C(=O)/C=C/CN3CCCCC3)CC1)C(=O)N(c1c(Cl)c(OC)cc(OC)c1Cl)C2 [Compound 124] | FGFR1 (Homo sapiens) | 9.10
COc1cc(OC)c(Cl)c(-c2cc3cnc(NC4CCCCC4)nc3n(C3CCN(C(=O)/C=C/CN(C)C)CC3)c2=O)c1Cl [Compound 136] | FGFR1 (Homo sapiens) | 8.96
CNc1ncc2cc(-c3c(Cl)c(OC)cc(OC)c3Cl)c(=O)n(C(C)c3cccc(NC(=O)/C=C/CN(C)C)c3)c2n1 (stereo not drawn) [Compound 146] | FGFR1 (Homo sapiens) | 8.92

* * *

measurement-target: FGFR3 (Homo sapiens, UniProt P22607)
Sequence (P22607 23-806): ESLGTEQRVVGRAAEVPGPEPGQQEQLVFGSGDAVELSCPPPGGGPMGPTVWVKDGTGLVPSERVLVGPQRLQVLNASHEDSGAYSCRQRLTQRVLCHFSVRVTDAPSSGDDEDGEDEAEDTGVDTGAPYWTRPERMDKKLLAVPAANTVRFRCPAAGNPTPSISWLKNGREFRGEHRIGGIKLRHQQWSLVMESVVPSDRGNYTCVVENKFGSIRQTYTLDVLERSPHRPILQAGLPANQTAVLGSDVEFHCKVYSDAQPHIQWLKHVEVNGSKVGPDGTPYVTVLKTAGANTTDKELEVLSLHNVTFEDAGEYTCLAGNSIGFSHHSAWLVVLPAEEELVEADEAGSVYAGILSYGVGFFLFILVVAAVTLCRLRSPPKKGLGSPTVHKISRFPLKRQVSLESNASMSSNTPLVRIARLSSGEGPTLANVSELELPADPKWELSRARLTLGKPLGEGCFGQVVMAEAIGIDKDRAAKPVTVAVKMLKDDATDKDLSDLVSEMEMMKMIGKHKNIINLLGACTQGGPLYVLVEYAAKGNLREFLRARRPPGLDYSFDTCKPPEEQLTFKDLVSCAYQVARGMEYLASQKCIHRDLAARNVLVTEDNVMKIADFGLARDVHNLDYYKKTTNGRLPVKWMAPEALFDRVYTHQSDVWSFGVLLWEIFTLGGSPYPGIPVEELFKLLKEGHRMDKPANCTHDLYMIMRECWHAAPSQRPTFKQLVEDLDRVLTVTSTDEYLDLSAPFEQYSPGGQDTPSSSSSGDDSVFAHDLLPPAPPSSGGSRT
procedure-details: Isolated enzyme FRET-based Z-Lyte kinase inhibition assay
condition: means from 3 independent experiments; read-out: Isolate Enzyme Inhibition IC50, FGFR3
pIC50: −log10 of the molar value.
reported-metric: pIC50

compound | readout-number
COc1cc(Nc2ncc3cc(-c4c(Cl)c(OC)cc(OC)c4Cl)c(=O)n(C4CCN(C(=O)/C=C/CN(C)C)CC4)c3n2)ccc1F | 8.26
COc1cc(OC)c(Br)c(-c2cc3cnc(NC(C)C)nc3n(C3CCN(C(=O)/C=C/CN(C)C)CC3)c2=O)c1Br | 8.12
CNc1ncc2c(n1)N([C@@H]1CCN(C(=O)/C=C/CN(C)C)C1)C(=O)N(c1c(Cl)c(OC)cc(OC)c1Cl)C2 | 6.15
COc1cc(OC)c(Cl)c(-c2cc3cnc(Nc4ccc(F)cc4)nc3n(C3CCN(C(=O)/C=C/CN(C)C)CC3)c2=O)c1Cl | 8.22
COc1cc(OC)c(Cl)c(-c2cc3cnc(NCC4CCOCC4)nc3n(C3CCN(C(=O)/C=C/CN(C)C)CC3)c2=O)c1Cl | 8.21
COc1cc(Nc2ncc3c(n2)N(C2CCN(C(=O)/C=C/CN(C)C)CC2)C(=O)N(c2c(Cl)c(OC)cc(OC)c2Cl)C3)ccc1F | 8.62
CNc1ncc2c(n1)N(C1CCN(C(=O)/C=C/CN3CCOCC3)CC1)C(=O)N(c1c(Cl)c(OC)cc(OC)c1Cl)C2 | 8.08
COc1cc(OC)c(Cl)c(-c2cc3cnc(NC(C)C)nc3n(C3CCN(C(=O)/C=C/CN(C)C)CC3)c2=O)c1Cl | 7.96
CNc1ncc2c(n1)N(C1CCN(C(=O)/C=C/CN3CCCCC3)CC1)C(=O)N(c1c(Cl)c(OC)cc(OC)c1Cl)C2 | 7.92
COc1cc(OC)c(Cl)c(N2Cc3cnc(Nc4ccccc4)nc3N([C@H]3CCN(C(=O)/C=C/CN(C)C)C3)C2=O)c1Cl | 7.77
COc1cc(OC)c(Cl)c(-c2cc3cnc(NC4CCOC4)nc3n(C3CCN(C(=O)/C=C/CN(C)C)CC3)c2=O)c1Cl (stereo not shown) | 7.96
COc1cccc(Nc2ncc3cc(-c4c(Cl)c(OC)cc(OC)c4Cl)c(=O)n(C4CCN(C(=O)/C=C/CN(C)C)CC4)c3n2)c1 | 8.31
CCNc1ncc2cc(-c3c(Cl)c(OC)cc(OC)c3Cl)c(=O)n(Cc3cccc(NC(=O)/C=C/CN(C)C)c3)c2n1 | 8.17
COc1cc(OC)c(Cl)c(-c2cc3cnc(NC(C)C)nc3n(Cc3cccc(NC(=O)/C=C/CN(C)C)c3)c2=O)c1Cl | 8.16
COc1cc(OC)c(Cl)c(N2Cc3cnc(NC(C)C)nc3N([C@H]3CCN(C(=O)/C=C/CN(C)C)C3)C2=O)c1Cl | 7.46
CNc1ncc2c(n1)N(CCCNC(=O)/C=C/CN(C)C)C(=O)N(c1c(Cl)c(OC)cc(OC)c1Cl)C2 | 7.29

* * *

measurement-target: FGFR2 (Homo sapiens, UniProt P21802)
Sequence (P21802 22-821): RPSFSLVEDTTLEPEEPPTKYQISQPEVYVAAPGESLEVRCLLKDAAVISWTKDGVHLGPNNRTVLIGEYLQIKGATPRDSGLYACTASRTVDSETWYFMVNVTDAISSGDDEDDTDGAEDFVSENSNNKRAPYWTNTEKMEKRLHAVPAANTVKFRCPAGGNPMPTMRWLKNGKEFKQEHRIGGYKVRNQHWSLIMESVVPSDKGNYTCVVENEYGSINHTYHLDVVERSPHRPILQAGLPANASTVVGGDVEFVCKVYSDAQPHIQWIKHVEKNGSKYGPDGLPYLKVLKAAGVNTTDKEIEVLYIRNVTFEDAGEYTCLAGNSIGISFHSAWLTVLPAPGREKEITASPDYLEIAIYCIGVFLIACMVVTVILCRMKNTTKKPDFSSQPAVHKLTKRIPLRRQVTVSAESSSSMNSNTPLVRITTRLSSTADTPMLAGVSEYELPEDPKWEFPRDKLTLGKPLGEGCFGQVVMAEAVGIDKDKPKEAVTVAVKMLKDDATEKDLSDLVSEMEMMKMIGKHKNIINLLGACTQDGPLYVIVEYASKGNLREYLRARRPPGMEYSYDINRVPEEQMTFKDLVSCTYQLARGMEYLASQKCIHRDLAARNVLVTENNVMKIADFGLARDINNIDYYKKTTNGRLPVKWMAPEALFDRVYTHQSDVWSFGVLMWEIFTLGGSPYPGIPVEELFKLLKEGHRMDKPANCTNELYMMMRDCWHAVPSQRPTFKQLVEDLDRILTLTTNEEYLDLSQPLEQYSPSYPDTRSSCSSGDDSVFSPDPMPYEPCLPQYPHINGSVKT
procedure-details: Isolated enzyme FRET-based Z-Lyte kinase inhibition assay
condition: means from 3 independent experiments; read-out: Isolate Enzyme Inhibition IC50, FGFR2
Description: FGFR1-4 and the Z-Lyte Kinase Assay Kit were purchased from Invitrogen. The concentration gradients from 5.1×10^−11 to 1.0×10^−6 mol/L were used for all the test compounds. The experiments were performed according to the instructions of the manufacturer. FGFR1-4 isolated enzyme activity was determined using the FRET-based Z-Lyte kinase inhibition assay. The data are the means from 3 independent experiments.
List of IC50 values.
reported-metric: IC50 (nM)

compound | readout-number
COc1cc(OC)c(Cl)c(-c2cc3cnc(NC4CCOC4)nc3n(C3CCN(C(=O)/C=C/CN(C)C)CC3)c2=O)c1Cl (stereo not drawn) [Compound 134] | 1.6
CNc1ncc2c(n1)N(Cc1cccc(NC(=O)/C=C/CN(C)C)c1)C(=O)N(c1c(Cl)c(OC)cc(OC)c1Cl)C2 [Compound 127] | 2.7
COc1cc(OC)c(Cl)c(N2Cc3cnc(NC4CCCCC4)nc3N([C@H]3CCN(C(=O)/C=C/CN(C)C)C3)C2=O)c1Cl [Compound 105] | 16
COc1cc(OC)c(Br)c(N2Cc3cnc(NC(C)C)nc3N(C3CCN(C(=O)/C=C/CN(C)C)CC3)C2=O)c1Br [Compound 151] | 3.5
CNc1ncc2c(n1)N(C1CCN(C(=O)/C=C/CN3CCCCC3)CC1)C(=O)N(c1c(Cl)c(OC)cc(OC)c1Cl)C2 [Compound 124] | 1.9
CNc1ncc2c(n1)N([C@H]1CCN(C(=O)/C=C/CN(C)C)C1)C(=O)N(c1c(Cl)c(OC)cc(OC)c1Cl)C2 [Compound 103] | 3.3
COc1cc(OC)c(Cl)c(N2Cc3cnc(Nc4ccccc4)nc3N([C@H]3CCN(C(=O)/C=C/CN(C)C)C3)C2=O)c1Cl [Compound 106] | 26
COc1cc(OC)c(Cl)c(-c2cc3cnc(Nc4ccc(F)cc4)nc3n(C3CCN(C(=O)/C=C/CN(C)C)CC3)c2=O)c1Cl [Compound 139] | 1.1
COc1cc(OC)c(Br)c(-c2cc3cnc(NC(C)C)nc3n(C3CCN(C(=O)/C=C/CN(C)C)CC3)c2=O)c1Br [Compound 153] | 1
CNc1ncc2c(n1)N(C1CCC(NC(=O)/C=C/CN(C)C)CC1)C(=O)N(c1c(Cl)c(OC)cc(OC)c1Cl)C2 (stereo not drawn) [Compound 126] | 1.5
COc1cc(OC)c(Cl)c(-c2cc3cnc(NC4CCCCC4)nc3n(C3CCN(C(=O)/C=C/CN(C)C)CC3)c2=O)c1Cl [Compound 136] | 1.3
CNc1ncc2cc(-c3c(Cl)c(OC)cc(OC)c3Cl)c(=O)n(C(C)c3cccc(NC(=O)/C=C/CN(C)C)c3)c2n1 (stereo not drawn) [Compound 146] | 1.2
COc1cc(OC)c(Cl)c(-c2cc3cnc(NCC4CCOCC4)nc3n(C3CCN(C(=O)/C=C/CN(C)C)CC3)c2=O)c1Cl [Compound 137] | 1.8
CNc1ncc2c(n1)N([C@@H]1CCN(C(=O)/C=C/CN(C)C)C1)C(=O)N(c1c(Cl)c(OC)cc(OC)c1Cl)C2 [Compound 102] | 15
COc1cc(OC)c(Cl)c(-c2cc3cnc(Nc4ccccc4)nc3n(C3CCN(C(=O)/C=C/CN(C)C)CC3)c2=O)c1Cl [Compound 138] | 1.1
CNc1ncc2cc(-c3c(Cl)c(OC)cc(OC)c3Cl)c(=O)n(C3CCN(C(=O)/C=C/CN(C)C)CC3)c2n1 [Compound 132] | 1
CCNc1ncc2cc(-c3c(Cl)c(OC)cc(OC)c3Cl)c(=O)n(Cc3cccc(NC(=O)/C=C/CN(C)C)c3)c2n1 [Compound 144] | 1.6
COc1cccc(Nc2ncc3cc(-c4c(Cl)c(OC)cc(OC)c4Cl)c(=O)n(C4CCN(C(=O)/C=C/CN(C)C)CC4)c3n2)c1 [Compound 140] | 0.9
